// reported Tm of the duplex with 3′-ctggatcc per item
test system: complementary single stranded DNA (3′-ctgNatcc); experiment: Melting temperatures of DNA and LNA 8-mers containing inosine, 2,6-diaminopurine or 2-aminopurine against complementary DNA; assay type: binding; conditions: duplex 2.5 μM; 0.1M NaCl; 10 mM Na-phosphate (pH 7.0); 1 mM EDTA
Marks after values point to notes of the source that are not given here.

Please review the entries below; each comes with its answer.
• 5′-gacatagg [Entry 1, reference compound] = <10 °C
• 5′-gacgtagg [Entry 3, reference compound] = <10 °C
• 5′-GACGTAGG [Entry 10] = 41^b ° C.

Problem: Requested read-out: Tm of the duplex with 3′-ctggatcc. Entry: 5′-gacttagg [Entry 2, reference compound]
Solution: <10 °C

The reported numbers originate from patent US9464106B2.
